target.under.test: EGFR (D746-750/C797S) (Homo sapiens, UniProt P00533, C797S/DEL746-750)
Sequence (P00533 with tags, fused parts or gaps DEL746-750/C797S): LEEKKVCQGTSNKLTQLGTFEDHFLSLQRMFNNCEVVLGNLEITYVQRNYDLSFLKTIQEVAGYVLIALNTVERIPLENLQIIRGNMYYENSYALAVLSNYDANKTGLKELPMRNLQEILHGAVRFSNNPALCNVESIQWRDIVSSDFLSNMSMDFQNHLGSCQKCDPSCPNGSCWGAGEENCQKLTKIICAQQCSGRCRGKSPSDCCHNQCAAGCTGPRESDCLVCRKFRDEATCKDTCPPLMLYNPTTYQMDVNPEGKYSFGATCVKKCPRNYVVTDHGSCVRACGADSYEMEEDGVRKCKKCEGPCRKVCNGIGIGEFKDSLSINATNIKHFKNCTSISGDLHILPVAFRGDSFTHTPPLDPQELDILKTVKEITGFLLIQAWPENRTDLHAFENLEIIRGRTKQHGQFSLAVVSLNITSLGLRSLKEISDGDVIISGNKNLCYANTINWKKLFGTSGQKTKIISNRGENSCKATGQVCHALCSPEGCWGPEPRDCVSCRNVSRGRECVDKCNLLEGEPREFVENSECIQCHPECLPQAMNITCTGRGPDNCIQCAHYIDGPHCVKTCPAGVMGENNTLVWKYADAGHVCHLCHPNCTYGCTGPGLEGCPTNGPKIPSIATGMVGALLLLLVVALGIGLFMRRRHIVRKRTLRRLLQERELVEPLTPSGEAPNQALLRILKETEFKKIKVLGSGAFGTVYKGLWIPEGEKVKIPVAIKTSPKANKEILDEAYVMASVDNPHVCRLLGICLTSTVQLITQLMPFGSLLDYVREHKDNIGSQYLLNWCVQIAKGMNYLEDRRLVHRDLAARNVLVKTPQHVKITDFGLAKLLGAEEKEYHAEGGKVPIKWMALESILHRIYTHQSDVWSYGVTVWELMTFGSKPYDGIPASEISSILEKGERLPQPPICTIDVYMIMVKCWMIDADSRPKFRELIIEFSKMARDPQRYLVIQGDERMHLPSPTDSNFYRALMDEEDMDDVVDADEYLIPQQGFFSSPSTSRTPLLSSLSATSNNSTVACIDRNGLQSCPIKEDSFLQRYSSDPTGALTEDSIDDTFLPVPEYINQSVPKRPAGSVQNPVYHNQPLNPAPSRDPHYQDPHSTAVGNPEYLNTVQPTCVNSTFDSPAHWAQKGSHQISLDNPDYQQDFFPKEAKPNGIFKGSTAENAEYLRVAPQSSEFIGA
assay.remarks: HotSpot radiometric kinase assay, inhibition of EGFR 746-750/C797S mutant
run.parameters: 33P ATP, room temperature, 120 m
IC50 for assorted compounds
recorded.endpoint: IC50 (pM)

> print(dat)
                            chemical.string  recorded.endpoint  observed.result
1  Cc1nn(C)c2c1-c1cc3c(n[nH]c3cn1)/C=C/c1c(C#N)nn([C@@H](C)CO)c1CN(C)C[C@H](C)O2               IC50              630
2  CCOc1nn(CCO)c2c1/C=C/c1n[nH]c3cnc(cc13)-c1c(C)nn(C)c1O[C@@H](C)CN(CC)C2               IC50              240
3  CCN1Cc2c(c(C)nn2CCO)/C=C/c2n[nH]c3cnc(cc23)-c2c(C)nn(C)c2O[C@H](C)C1               IC50              200
4  CCOc1nn([C@@H](C)CO)c2c1/C=C/c1n[nH]c3cnc(cc13)-c1c(C)nn(C)c1O[C@@H](C)CN(CC)C2               IC50             1970
